Molecular target: 5-HT2A Receptor (Rattus norvegicus)
Construct: endogenous in cells
Sequence (P14842 whole entry): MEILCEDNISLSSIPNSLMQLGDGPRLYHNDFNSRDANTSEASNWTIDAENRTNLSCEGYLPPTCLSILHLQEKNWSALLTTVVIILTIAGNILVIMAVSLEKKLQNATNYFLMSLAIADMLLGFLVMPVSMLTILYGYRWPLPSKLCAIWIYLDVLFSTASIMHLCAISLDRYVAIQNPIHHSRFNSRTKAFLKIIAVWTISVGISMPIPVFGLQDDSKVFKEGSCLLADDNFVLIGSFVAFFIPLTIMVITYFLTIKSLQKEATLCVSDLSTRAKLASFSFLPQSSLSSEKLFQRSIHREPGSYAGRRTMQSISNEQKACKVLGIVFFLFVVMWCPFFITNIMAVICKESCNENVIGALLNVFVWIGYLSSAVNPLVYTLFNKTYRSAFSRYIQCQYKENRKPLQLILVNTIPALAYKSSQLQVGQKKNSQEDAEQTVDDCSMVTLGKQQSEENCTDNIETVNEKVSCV
Test: 5-HT2 functional assay: [Ca2+]i mobilization (FLIPR)
Settings: A7r5 rat vascular smooth muscle cells, [Ca2+]i mobilization
property: pEC50
The meaning of pEC50 here: minus log10 of the concentration in molar units.

Task: Which measured pEC50 value corresponds to COc1cc(CC(C)N)c(OC)cc1I (stereo not shown) [DOI] ?
Result: 7.52

====

Biological target: 5-HT2A Receptor
Test: 5-HT2 receptor binding assay ([125I]DOI competition)
Conditions: inhibition of [125I]DOI binding, cerebral cortex homogenates
property: pIC50
The meaning of pIC50 here: minus log10 of the concentration in molar units.

Task: GET /values?readout=pIC50&system=5-HT2A Receptor&item= COc1cc(CC(C)N)c(OC)cc1I (stereo not shown)
Result: 9.48

// provenance: patent US20050171190A1
